measured_target: Gastrin-releasing peptide receptor (Rattus norvegicus) (UniProt P52500)
Sequence (P52500 whole entry): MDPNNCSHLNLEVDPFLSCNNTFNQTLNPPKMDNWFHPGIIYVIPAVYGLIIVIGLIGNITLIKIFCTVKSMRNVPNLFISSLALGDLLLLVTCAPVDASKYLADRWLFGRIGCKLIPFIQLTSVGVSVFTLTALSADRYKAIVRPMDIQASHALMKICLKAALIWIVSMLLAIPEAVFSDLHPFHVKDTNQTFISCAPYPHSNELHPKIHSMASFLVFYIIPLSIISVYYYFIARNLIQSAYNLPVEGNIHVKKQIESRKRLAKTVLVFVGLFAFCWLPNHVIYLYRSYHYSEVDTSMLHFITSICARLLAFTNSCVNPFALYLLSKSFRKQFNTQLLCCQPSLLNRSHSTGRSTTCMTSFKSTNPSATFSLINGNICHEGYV
assay_info: Tested for the inhibition of Bombesin-stimulated amylase release at 5 uM concentration in rat pranceatic acini
Type: functional
quantity_measured: Release (%)

Sample records with Release:
CN[C@H](Cc1ccccc1)C(=O)N[C@@H](Cc1c[nH]c2ccccc12)C(=O)N[C@@H](C)C(=O)N[C@H](C(=O)NCC(=O)N[C@@H](Cc1c[nH]cn1)C(=O)N[C@H](CN[C@@H](CCSC)C(N)=O)CC(C)C)C(C)C ... 12.2
CSCC[C@H](NC[C@H](CC(C)C)NC(=O)[C@H](Cc1c[nH]cn1)NC(=O)CNC(=O)[C@@H](NC(=O)[C@H](C)NC(=O)[C@H](Cc1c[nH]c2ccccc12)NC(=O)[C@H](CC(N)=O)NC(=O)CN)C(C)C)C(N)=O ... 6.5

I. CC(=O)NC[C@H](CC(C)C)NC(=O)[C@H](Cc1c[nH]cn1)NC(=O)CNC(=O)[C@@H](NC(=O)[C@H](C)NC(=O)[C@H](Cc1c[nH]c2ccccc12)NC(=O)[C@H](Cc1c[nH]cn1)NC(=O)[C@@H](Cc1ccccc1)NC(C)=O)C(C)C
II. CN[C@H](Cc1ccccc1)C(=O)N[C@@H](Cc1c[nH]cn1)C(=O)N[C@@H](Cc1c[nH]c2ccccc12)C(=O)N[C@@H](C)C(=O)N[C@H](C(=O)NCC(=O)N[C@@H](Cc1c[nH]cn1)C(=O)N[C@@H](CC(C)C)CN(C=O)[C@@H](CCSC)C(N)=O)C(C)C
-- ask Which of the two items, I and II , has the greater recorded Release? Lab log: write the label of the selected item as the result.
-- reply II

###

measured_target: Gastrin-releasing peptide receptor (Rattus norvegicus) (UniProt P52500)
assay_info: Tested for the inhibition of bombesin-stimulated amylase release in rat pranceatic acini
Type: functional
Where a SMILES comes first, the peptide text is derived from it. The star is where a group is joined. X1 = CSCC[C@H](NC[C@H](CC(C)C)N*)C(N)=O; X2 = CC(=O)NC[C@H](CC(C)C)N*
quantity_measured: Release (%)

CSCC[C@H](NC[C@H](CC(C)C)NC(=O)[C@H](Cc1c[nH]cn1)NC(=O)CNC(=O)[C@@H](NC(=O)[C@H](C)NC(=O)[C@H](Cc1c[nH]c2ccccc12)NC(C)=O)C(C)C)C(N)=O (Ac-WAVGH-X1) ... 4.8

I. CSCC[C@H](NC[C@H](CC(C)C)NC(=O)[C@H](Cc1c[nH]cn1)NC(=O)CNC(=O)[C@@H](NC(=O)[C@H](C)NC(=O)[C@@H](N)Cc1c[nH]c2ccccc12)C(C)C)C(N)=O (H-WAVGH-X1)
II. CC(=O)NC[C@H](CC(C)C)NC(=O)[C@H](Cc1c[nH]cn1)NC(=O)CNC(=O)[C@@H](NC(=O)[C@H](C)NC(=O)[C@H](Cc1c[nH]c2ccccc12)NC(=O)[C@H](Cc1c[nH]cn1)NC(=O)[C@H](CCC(N)=O)NC(C)=O)C(C)C (Ac-QHWAVGH-X2)
-- ask Which of the two items, I and II , has the greater recorded Release? Lab log: write the label of the selected item as the result.
-- reply I

###

measured_target: Gastrin-releasing peptide receptor (Rattus norvegicus)
assay_info: Tested for the inhibition of Bombesin-stimulated amylase release at 50 nM concentration in the presence of 0.2 nM of bombesin in rat pranceatic acini
Format: functional
quantity_measured: Release (%)

CC(=O)NC[C@H](CC(C)C)NC(=O)[C@H](Cc1c[nH]cn1)NC(=O)CNC(=O)[C@@H](NC(=O)[C@H](C)NC(=O)[C@H](Cc1cn(C=O)c2ccccc12)NC(=O)[C@H](Cc1c[nH]cn1)NC(=O)[C@H](N)Cc1ccccc1)C(C)C ... 16.2
CC(=O)NC[C@H](CC(C)C)NC(=O)[C@H](Cc1c[nH]cn1)NC(=O)CNC(=O)[C@@H](NC(=O)[C@H](C)NC(=O)[C@H](Cc1c[nH]c2ccccc12)NC(=O)[C@H](CCC(N)=O)NC(=O)[C@@H](Cc1ccccc1)NC(C)=O)C(C)C ... 14.8
